Entry source: PubChem BioAssay (NCATS)

System: WaGa
Experiment: qHTS assay to identify novel small-molecules to repurpose for Merkel cell carcinoma treatment (AID 1296009); further: nearly all actives have a fitted effect of over 60% in size
Conditions: MCC and control cell lines, CellTiter-Glo viability, 72 h; series mostly up to 46 µM
Excerpt: MCC is a rare and aggressive neuroendocrine skin cancer with limited treatment options. Approximately 80% of MCCs have the Merkel cell polyomavirus (MCPyV) DNA integrated into the host genome (virus-positive: VP-MCC) and viral oncogenes drive oncogenesis. The remaining MCCs are virus-negative (VN-MCC) and are caused by UV mutagenesis. […] Using cell viability as a readout (CellTiter-Glo assay) we found both overlapping and distinct drugs that can be repurposed for the treatment of VP-MCC and VN-MCC. […]
Inconclusive results are not listed. Activity calls are given as the source filed them. The call rests on the fitted dose curve; in most records, active means well fitted inhibition curve with a large enough effect; inconclusive means small, poorly fitted or top-dose-only effect; inactive means flat fitted curve, though single readings scatter.
PROPERTY_LABEL: outcome

The cases that follow already have their outcome on record.
| COMPOUND | outcome |
| --- | --- |
| CC1=C2C[C@@H]3[C@@H](CC=C4C[C@@H](O)CC[C@@]43C)[C@@H]2CC[C@]12O[C@H]1C[C@H](C)CN[C@H]1[C@H]2C | inactive |
| COc1ccccc1N1CCNCC1 | inactive |
| CC(CCc1ccccc1)NC(C)C(O)c1ccc(O)cc1 (centres undefined) | inactive |
| O=c1oc2ccccc2c(O)c1C(CC(O)c1ccc(-c2ccc(Br)cc2)cc1)c1ccccc1 (centres undefined) | inactive |
| CNCC(O)c1ccc(O)cc1 (centres undefined) | inactive |
| CCC(C(N)=O)N1CCCC1=O (centres undefined) | inactive |

Can you share its outcome? I mean this compound: NCC1(CC(=O)O)CCCCC1
inactive

Can you share its outcome? I mean this compound: C=C1CC[C@@]2(O)[C@H]3Cc4ccc(O)c5c4[C@@]2(CCN3CC2CC2)[C@H]1O5
inactive

Can you share its outcome? I mean this compound: CC1NCCOC1c1ccccc1 (centres undefined)
inactive

---

tested on: CP262; experiment: qHTS profiling for inhibitors of Plasmodium falciparum proliferation (AID 504749); further: nearly all actives have a fitted effect of over 60% in size; conditions: P. falciparum in erythrocytes, SYBR Green DNA, 72 h; series mostly up to 28.7 µM
Records with an inconclusive call do not appear. Active and inactive are the calls of the source. The call rests on the fitted dose curve; in most records, active means well fitted inhibition curve with a large enough effect; inconclusive means small, poorly fitted or top-dose-only effect; inactive means flat fitted curve, though single readings scatter.
Classes to choose from: Y for active, N for inactive

Name the outcome recorded for CC(CCc1ccccc1)NC(C)C(O)c1ccc(O)cc1 (centres undefined) in the assay.
N

Name the outcome recorded for CC(C)CC(N(C)C)C1(c2ccc(Cl)cc2)CCC1 (centres undefined) in the assay.
N

Name the outcome recorded for O=C(NC(O)C(Cl)(Cl)Cl)NC(O)C(Cl)(Cl)Cl (centres undefined) in the assay.
N

Name the outcome recorded for Clc1ccc(COC(Cn2ccnc2)c2ccc(Cl)cc2Cl)cc1 (centres undefined) in the assay.
Y

---

system: TAB165; assay: qHTS profiling for inhibitors of Plasmodium falciparum proliferation (AID 504749); further: nearly all actives have a fitted effect of over 60% in size; further: potency means the concentration at half of the fitted maximal effect; settings: P. falciparum in erythrocytes, SYBR Green DNA, 72 h; series mostly up to 28.7 µM
Records with an inconclusive call do not appear. The source made the active and inactive calls. Calls follow the shape of the dose curve; as a rule, active = well fitted inhibition curve with a large enough effect; inconclusive = small, poorly fitted or top-dose-only effect; inactive = flat fitted curve, though single readings scatter.
PROPERTY_LABEL: Potency

The cases that follow already have their Potency on record.
| MOLECULE | Potency |
| --- | --- |
| CC1OC(C)OC(C)O1 (stereo unspecified) | inactive |
| N[C@@H](Cc1ccc(N(CCCl)CCCl)cc1)C(=O)O | 11.2 µM (active) |
| NP(N)(=O)NC(=O)c1ccc(F)cc1 | inactive |
| Oc1cc(Cl)ccc1Oc1ccc(Cl)cc1Cl | 3.55 µM (active) |
| CC(C)CC(N(C)C)C1(c2ccc(Cl)cc2)CCC1 (stereo unspecified) | inactive |

Can you share its Potency? I mean this molecule: CN1C(=S)CN=C(c2ccccc2)c2cc(Cl)ccc21
inactive

Can you share its Potency? I mean this molecule: Oc1cccc2cccnc12
inactive

Can you share its Potency? I mean this molecule: CC(C)(C)CC(C)(C)c1ccc(O)cc1
inactive

Can you share its Potency? I mean this molecule: NCC1(CC(=O)O)CCCCC1
inactive

Can you share its Potency? I mean this molecule: Oc1ccc(Cl)cc1Cc1ccccc1
6.31 µM (active)

Can you share its Potency? I mean this molecule: OCCOc1ccccc1
inactive

Can you share its Potency? I mean this molecule: N#CC(C#N)=Cc1ccc(O)c(O)c1
inactive

Can you share its Potency? I mean this molecule: Fc1ccc(C(OCCN2CCN(CCCc3ccccc3)CC2)c2ccc(F)cc2)cc1
4.47 µM (active)

Can you share its Potency? I mean this molecule: CC[C@@H](CO)NC(=O)[C@@H]1C=C2c3cccc4[nH]cc(c34)C[C@H]2N(C)C1
inactive

Can you share its Potency? I mean this molecule: CC1NCCOC1c1ccccc1 (stereo unspecified)
inactive

Can you share its Potency? I mean this molecule: CCOP(=S)(OCC)Oc1cc(C)nc(C(C)C)n1
inactive

Can you share its Potency? I mean this molecule: Oc1ccccc1-c1ccccc1
inactive

Can you share its Potency? I mean this molecule: CCC(C(N)=O)N1CCCC1=O (stereo unspecified)
inactive

Can you share its Potency? I mean this molecule: O=P1(NCCCl)OCCCN1CCCl (stereo unspecified)
inactive

Can you share its Potency? I mean this molecule: O=[N+]([O-])c1cc([As](=O)(O)O)ccc1O
3.55 µM (active)

Can you share its Potency? I mean this molecule: CCOC(=O)C1(c2ccccc2)CCN(CCC(C#N)(c2ccccc2)c2ccccc2)CC1
2.51 µM (active)

Can you share its Potency? I mean this molecule: CN1CCN(C(=O)O[C@H]2c3nccnc3C(=O)N2c2ccc(Cl)cn2)CC1
inactive

Can you share its Potency? I mean this molecule: CC(=O)[C@H]1CC[C@H]2[C@@H]3CC[C@H]4C[C@H](O)CC[C@]4(C)[C@H]3C(=O)C[C@]12C
inactive

Can you share its Potency? I mean this molecule: Cc1ccc(-c2nc3ccc(C)cn3c2CC(=O)N(C)C)cc1
inactive

Can you share its Potency? I mean this molecule: COc1ccc(C(=O)c2c(C)n(CCN3CCOCC3)c3ccccc23)cc1
inactive

Can you share its Potency? I mean this molecule: CC(C)=CC1C(C(=O)OCc2cccc(Oc3ccccc3)c2)C1(C)C (stereo unspecified)
inactive
